// data source = the kinase profiling compilation of Christmann-Franck et al. (2016)

# assaySystem: EPHA6 (human)
# assayMethodText: KINOMEscan competition binding
# conditionParameters: compound 10.0 µM
readoutName: kinase still bound, per cent of control (%)
I only need the number, in %, no unit after it.

# example entries with known answers
- CNC(=O)c1ccc(Nc2cc(Nc3ccccc3S(=O)(=O)C(C)C)c3cc[nH]c3n2)nc1: 29
- COCC(=O)NC/C=C/c1ccc2ncnc(Nc3ccc(Oc4ccc(C)nc4)c(C)c3)c2c1: 96
- O=c1cc(N2CCOCC2)oc2c(-c3cccc4c3sc3ccccc34)cccc12: 89

Now let's try a different one.
Req: I am curious: what kinase still bound, per cent of control value has been reported for "CCN(CC)CCCCNc1ncc2c(n1)N(C)C(=O)N(c1c(Cl)c(OC)cc(OC)c1Cl)C2" ?
Resp: 100

====

Attribute: kinase still bound, per cent of control
# assaySystem: STK3 (human)
# assayMethodText: KINOMEscan competition binding
# conditionParameters: compound 10.0 µM
# output: bare number, implied unit %

* CNC(=O)c1cc(Oc2ccc(NC(=O)Nc3ccc(Cl)c(C(F)(F)F)c3)cc2)ccn1 | 85
* Cc1n[nH]c2ccc(-c3cncc(OC[C@@H](N)Cc4c[nH]c5ccccc45)c3)cc12 | 0.35
* O=c1cc(N2CCOCC2)oc2c(-c3cccc4c3sc3ccccc34)cccc12 | 85
* COc1cc(C(=O)N2CCC(N3CCN(C)CC3)CC2)ccc1Nc1ncc2c(n1)N(C)c1ccccc1C(=O)N2C | 71
* CCN(CC)CCCCNc1ncc2c(n1)N(C)C(=O)N(c1c(Cl)c(OC)cc(OC)c1Cl)C2 | 100

Req: Request the reported kinase still bound, per cent of control associated with "C=CC(=O)Nc1ccc(CN(C(=O)Nc2c(Cl)c(OC)cc(OC)c2Cl)c2cc(Nc3ccc(N4CCN(C)CC4)cc3)ncn2)cc1"
Resp: 100

Req: Ok, now "COc1cc2ncnc(-n3nc(-c4ccccn4)nc3N)c2cc1OC"
Resp: 54

Req: Similarly, "CN(C)C/C=C/C(=O)Nc1ccc(C(=O)Nc2cccc(Nc3nccc(-c4cccnc4)n3)c2)cc1" ?
Resp: 100

====

# assaySystem: TAOK1 (human)
# assayMethodText: KINOMEscan competition binding
# conditionParameters: compound 10.0 µM
In this scheme, each record receives a class according to its kinase still bound, per cent of control; the ranges are lower segment = under 3%, middle segment = from 3% up to 30%, upper segment = 30% and over

Worked cases, answers included:
* O=c1cc(N2CCOCC2)oc2c(-c3cccc4c3sc3ccccc34)cccc12 | upper segment
* Cc1n[nH]c2ccc(-c3cncc(OC[C@@H](N)Cc4c[nH]c5ccccc45)c3)cc12 | lower segment
* CS(=O)(=O)N1CCN(Cc2cc3nc(-c4cccc5[nH]ncc45)nc(N4CCOCC4)c3s2)CC1 | upper segment
* CN(C)C/C=C/C(=O)Nc1ccc(C(=O)Nc2cccc(Nc3nccc(-c4cccnc4)n3)c2)cc1 | middle segment
* NC(=O)Nc1cc(-c2cccc(F)c2)sc1C(=O)N[C@@H]1CCCNC1 | middle segment
* CCN1CCN(C(=O)Cc2ccc(Nc3ncc(F)c(Nc4ccc(C(=O)Nc5ccccc5Cl)cc4)n3)cc2)CC1 | upper segment

Req: Tag the class for "COc1cc2ncnc(-n3nc(-c4ccccn4)nc3N)c2cc1OC"
Resp: middle segment

Req: # iterate: "COc1cc2ncn(-c3cc(OCc4ccccc4C(F)(F)F)c(C(N)=O)s3)c2cc1OC"
Resp: upper segment

Req: Now consider "COc1ccc(N(C(=O)Oc2c(C)cccc2C)c2ccnc(Nc3ccc(N4CCN(C)CC4)cc3)n2)c(OC)c1" .
Resp: middle segment

Req: Quick one: "C=CC(=O)Nc1ccc(CN(C(=O)Nc2c(Cl)c(OC)cc(OC)c2Cl)c2cc(Nc3ccc(N4CCN(C)CC4)cc3)ncn2)cc1"
Resp: lower segment

====

compounds and their reported kinase still bound, per cent of control
# assaySystem: PRKCE (human)
# assayMethodText: KINOMEscan competition binding
# conditionParameters: compound 10.0 µM

- COc1cc2ncn(-c3cc(OCc4ccccc4C(F)(F)F)c(C(N)=O)s3)c2cc1OC: 100%
- O=C1NC(=O)/C(=C/c2ccc3nccc(-c4ccncc4)c3c2)S1: 38%
- C=CC(=O)Nc1ccc(CN(C(=O)Nc2c(Cl)c(OC)cc(OC)c2Cl)c2cc(Nc3ccc(N4CCN(C)CC4)cc3)ncn2)cc1: 100%

Req: Could you tell me which kinase still bound, per cent of control is on file for "CCN(CC)CCCCNc1ncc2c(n1)N(C)C(=O)N(c1c(Cl)c(OC)cc(OC)c1Cl)C2" ?
Resp: 100%

====

# Test system: FLT3 (human), P36888 [D835H]
# assayMethodText: KINOMEscan competition binding
# conditionParameters: compound 10.0 µM
Catalogue of compounds with associated kinase still bound, per cent of control
# number then unit; no other words

* C=CC(=O)Nc1cccc(Nc2nc(N[C@H]3CC[C@H](N(C)C)CC3)nc3c2ncn3C(C)C)c1 | 5.4%
* CCN1CCN(C(=O)Cc2ccc(Nc3ncc(F)c(Nc4ccc(C(=O)Nc5ccccc5Cl)cc4)n3)cc2)CC1 | 0.6%
* COc1cc2c(Nc3ccc(NC(=O)c4ccccc4)cc3)ncnc2cc1OCCCN1CCOCC1 | 13%

Req: For FLT3 (human), P36888 [D835H], provide kinase still bound, per cent of control of "CNC(=O)c1ccc(Nc2cc(Nc3ccccc3S(=O)(=O)C(C)C)c3cc[nH]c3n2)nc1" please.
Resp: 0.65%

Req: And CC1=C(C(=O)Nc2cc3cn[nH]c3cc2F)C(c2ccc(C(F)(F)F)cc2)CC(=O)N1 (stereo not drawn) ?
Resp: 76%

Req: Continue with "O=C(NC1CC1)c1cccc(-c2ccc3c(NC(=O)C4CC4)n[nH]c3c2)c1"
Resp: 47%

Req: // next record "COc1ccc(N(C(=O)Oc2cc(C(=O)Nc3cccc(C(F)(F)F)c3)ccc2C)c2ccnc(Nc3ccc(N4CCN(C)CC4)cc3)n2)c(OC)c1"
Resp: 100%

Req: Lookup "C=CC(=O)Nc1ccc(CN(C(=O)Nc2c(Cl)c(OC)cc(OC)c2Cl)c2cc(Nc3ccc(N4CCN(C)CC4)cc3)ncn2)cc1"
Resp: 16%

Req: Same question for "Cc1ccc(C(=O)Nc2cccc(C(F)(F)F)c2)cc1Nc1cncc(C(N)=O)c1" please.
Resp: 100%

Req: Field entry: "CCOc1cc(N2CCC(O)CC2)ccc1Nc1ncc2c(n1)N(C)c1ccccc1C(=O)N2C"
Resp: 100%

Req: For "OCCCNc1cc(-c2ccnc(Nc3cccc(Cl)c3)n2)ccn1" then?
Resp: 100%

Req: Request: "CC(=O)c1c(C)c2cnc(Nc3ccc(N4CCNCC4)cn3)nc2n(C2CCCC2)c1=O"
Resp: 22%

Req: Request: "CN(C)C/C=C/C(=O)Nc1cccc(Nc2ncc3c(n2)N(C)c2ccccc2C(=O)N3C)c1"
Resp: 5.3%

====

# assaySystem: PKN2 (human) (UniProt Q16513)
# Sequence (Q16513 whole entry, looked up): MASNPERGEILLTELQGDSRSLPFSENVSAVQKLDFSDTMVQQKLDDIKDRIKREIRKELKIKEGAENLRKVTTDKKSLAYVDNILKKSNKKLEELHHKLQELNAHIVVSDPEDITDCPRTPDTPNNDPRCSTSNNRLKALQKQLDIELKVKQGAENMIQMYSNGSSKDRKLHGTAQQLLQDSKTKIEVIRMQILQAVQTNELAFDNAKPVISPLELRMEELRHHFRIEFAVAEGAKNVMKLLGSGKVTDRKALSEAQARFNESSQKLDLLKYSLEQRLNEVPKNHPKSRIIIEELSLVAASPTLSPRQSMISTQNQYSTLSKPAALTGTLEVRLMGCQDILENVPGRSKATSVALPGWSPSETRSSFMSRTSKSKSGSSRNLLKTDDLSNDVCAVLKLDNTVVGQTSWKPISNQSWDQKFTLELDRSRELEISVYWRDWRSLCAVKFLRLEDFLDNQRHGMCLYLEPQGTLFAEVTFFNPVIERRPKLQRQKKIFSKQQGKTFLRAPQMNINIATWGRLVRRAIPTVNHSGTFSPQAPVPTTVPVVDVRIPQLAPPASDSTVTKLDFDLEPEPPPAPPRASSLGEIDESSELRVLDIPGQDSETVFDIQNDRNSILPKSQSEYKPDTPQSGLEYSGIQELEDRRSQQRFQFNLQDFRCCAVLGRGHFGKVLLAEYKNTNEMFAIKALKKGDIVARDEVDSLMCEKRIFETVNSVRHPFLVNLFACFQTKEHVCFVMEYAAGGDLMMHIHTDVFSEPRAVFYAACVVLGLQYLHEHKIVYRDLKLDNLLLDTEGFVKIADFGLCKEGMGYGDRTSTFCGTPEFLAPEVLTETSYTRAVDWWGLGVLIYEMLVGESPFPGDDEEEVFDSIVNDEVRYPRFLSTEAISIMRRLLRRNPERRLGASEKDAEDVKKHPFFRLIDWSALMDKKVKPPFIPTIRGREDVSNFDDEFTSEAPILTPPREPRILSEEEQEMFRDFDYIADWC
# assayMethodText: KINOMEscan competition binding
# conditionParameters: compound 10.0 µM
Collected kinase still bound, per cent of control values appear next to each entry.
Please respond with the number in % and leave the unit unwritten.

* O=C(Nc1cccc(Nc2ncc(Br)c(NCCc3cnc[nH]3)n2)c1)N1CCCC1 | 4.6

Req: Requested field: kinase still bound, per cent of control. Item: "COc1cc(N2CCN(C)CC2)ccc1Nc1ncc2c(n1)N(C)c1ccccc1C(=O)N2C"
Resp: 100

Req: How about this compound: "N#CCNC(=O)c1ccc(-c2ccnc(Nc3ccc(N4CCOCC4)cc3)n2)cc1"
Resp: 47

Req: // next record "COc1ccc(N(C(=O)Oc2c(C)cccc2C)c2ccnc(Nc3ccc(N4CCN(C)CC4)cc3)n2)c(OC)c1"
Resp: 19

Req: Can you check "CNC(=O)c1cc(Oc2ccc(NC(=O)Nc3ccc(Cl)c(C(F)(F)F)c3)cc2)ccn1" next?
Resp: 100

Req: What do we get for "CCN1CCN(C(=O)Cc2ccc(Nc3ncc(F)c(Nc4ccc(C(=O)Nc5ccccc5Cl)cc4)n3)cc2)CC1" ?
Resp: 100

Req: Ok, now "O=C1NC(=O)/C(=C/c2ccc3nccc(-c4ccncc4)c3c2)S1"
Resp: 31

Req: Try this compound too: "CS(=O)(=O)N1CCN(Cc2cc3nc(-c4cccc5[nH]ncc45)nc(N4CCOCC4)c3s2)CC1"
Resp: 100

Req: Okay, and "COc1cc2ncn(-c3cc(OCc4ccccc4C(F)(F)F)c(C(N)=O)s3)c2cc1OC" ?
Resp: 39

====

# assaySystem: CSNK1D (human)
# assayMethodText: KINOMEscan competition binding
# conditionParameters: compound 10.0 µM
readoutName: kinase still bound, per cent of control (%)
Give just the numeric value; % need not be written.

Please review the following examples before continuing.
* C=CC(=O)Nc1cc(-n2c(=O)ccc3cnc4ccc(-c5cn[nH]c5)cc4c32)ccc1C | 47
* CNC(=O)c1cc(Oc2ccc(NC(=O)Nc3ccc(Cl)c(C(F)(F)F)c3)cc2)ccn1 | 100
* COc1cc2ncn(-c3cc(OCc4ccccc4C(F)(F)F)c(C(N)=O)s3)c2cc1OC | 81
* N#CCNC(=O)c1ccc(-c2ccnc(Nc3ccc(N4CCOCC4)cc3)n2)cc1 | 100

Req: Fill blank: measured kinase still bound, per cent of control of the compound "CCN(CC)CCCCNc1ncc2cc(-c3cc(OC)cc(OC)c3)c(NC(=O)NC(C)(C)C)nc2n1" is ____.
Resp: 100

Req: Next: "CCN(CC)CCCCNc1ncc2c(n1)N(C)C(=O)N(c1c(Cl)c(OC)cc(OC)c1Cl)C2"
Resp: 100

Req: What do you get for "COc1cc(C(=O)N2CCC(N3CCN(C)CC3)CC2)ccc1Nc1ncc2c(n1)N(C)c1ccccc1C(=O)N2C" ?
Resp: 81
